test: growth inhibitors of tim23-1 mutant yeast, primary screen, luminescence, uHTS (AID 463212);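 further: temperature-sensitive mutant grown at 25 °C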; settings: S. cerevisiae tim23-1 growth, BacTiter-Glo luminescence, 24 h; at 20 µM
Hit rate of the full screen: of about 330,000 compounds, about 4,400 (1.3%) were called active.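 How the source made its calls: active means growth inhibition of the mutant yeast at or above 50%; inactive means the rest.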 Only a selection was taken, and actives are over-represented in it overall.
Classes to choose from: TRUE = active, FALSE = inactive

## Input What did this assay record as the result for "O=C(CSc1nnnn1C1CCCC1)N1CCCCC1" ?
## Output FALSE

## Input // same read-out, input: "Cc1cc(=O)cc(C)n1-c1ccc(Cl)c(Cl)c1"
## Output FALSE

## Input // same read-out, input: "COc1cccc(C(=O)Nc2nc3ccc(S(C)(=O)=O)cc3s2)c1"
## Output FALSE

## Input // same read-out, input: "COc1ccc(OCC(=O)Nc2ccc(NC(=O)c3ccco3)c(C)c2)cc1"
## Output FALSE

## Input // same read-out, input: COc1ccc(S(=O)(=O)N2CCN(C(C)C(=O)Nc3ccc(C(C)C)cc3)CC2)cc1 (stereo not given)
## Output TRUE

## Input // same read-out, input: "CCOC(=O)NC(=O)/C(C#N)=C\c1ccccc1"
## Output FALSE

## Input // same read-out, input: "CCN(CC)C(=O)N1CCN(C(=O)c2ccc(C)cn2)CC1"
## Output FALSE

This collection of values is drawn from PubChem BioAssay AID463212.
